Recorded interaction score by entry
TARGET_SYSTEM: T1, 4H566-AA
T1 chain: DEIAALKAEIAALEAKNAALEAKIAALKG
METHOD_SUMMARY: two-hybrid library CCmax;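 note: natural log of median RNA to DNA barcode read ratio; higher means stronger binding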
CONDITIONS: mean of both orientations

The cases that follow already have their interaction score on record.
# get_value(readout='interaction score', item= DKIAALEAENAALEAEIAALKAKIAALKG [4H2190-AA] ) 0.26

Please give the measured interaction score for this binder: DEIAALEAKNAALEAKIAALKAKIAALEG [4H429-AA] 0.0626

Switching to the query record.
Given the binder DKIAALEAEIAALEAENAALKAKIAALKG [4H2078-AA] , what is its reported interaction score? -1.05
